Cited source: PubChem BioAssay

Target: Calmodulin-1 (Homo sapiens)
Experiment: small molecules binding calmodulin-1 with EGTA – biochemical, small-molecule microarray, Cy5-labelled CALM1, profiling panel (AID 1111);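 note: labelled calmodulin applied in Tris saline Tween buffer holding calcium plus EGTA and DTT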
Details: Cy5-CALM1 binding fluorescence, higher = more signal
Below is a list of entries, each paired with its recorded composite z-score value.
API doc: respond with a numeric literal and nothing else, no unit.

molecule	composite z-score
O=C1C[C@@](C(=O)NCc2ccccc2)(c2ccc([N+](=O)[O-])cc2)[C@@H](c2ccc(CO)cc2)N1C1CCCCC1	-0.175
CCCc1cc2c(n1CCc1ccc(Cl)cc1)C(C)C1CN(C(=O)c3ccccc3)C(C)(C(=O)OC)C21 (configuration not stated)	2.48
CN(C)CCCC[C@@H]1NC(=O)[C@@H]2C[C@H](C(=O)NCCCCCCNC(=O)CS)[C@H](c3ccc(O)cc3)N2C1=O	-0.383

Ask: Give composite z-score for C=CCOC(=O)[C@@H]1[C@H]2C(=O)O[C@H](c3ccccc3)[C@H](c3ccccc3)N2[C@H](c2ccc(OCCOC(=O)[C@H]3C[C@H]4C(=O)N5CCC[C@H]5C(=O)N4[C@H]3c3cccc(OCCO)c3)cc2)[C@@]12C(=O)Nc1ccc(I)cc12
Result: -0.0165

Ask: Give composite z-score for O=C(NCc1ccccc1)[C@@H]1c2ccccc2C(=O)N(Cc2cc(C(F)(F)F)cc(C(F)(F)F)c2)[C@H]1c1ccc(CO)cc1
Result: 0.288

Ask: Give composite z-score for C=CCNC(=O)[C@H]1[C@@H]2C(=O)O[C@@H](c3ccccc3)[C@@H](c3ccccc3)N2[C@@H](c2ccccc2OCCO)[C@]12C(=O)N(C(=O)OCCOC)c1ccc(C#Cc3ccc(OC)cc3)cc12
Result: 1.39

Ask: Give composite z-score for CCCCC(=C=CC[C@H](O)c1ccc(CO)o1)CCO
Result: 0.155

---

Test system: glycogen synthase kinase-3 (GSK3A per assay name; protocol says GSK3B)
Assay: compounds binding glycogen synthase kinase-3 – biochemical, small-molecule microarray, 635 nm fluorescence, GSK3A, primary screen (AID 1103); note: the record names both GSK3A and GSK3B
Conditions: fluorescence 635 nm, higher = more signal
Below is a list of entries, each paired with its recorded composite z-score value.
API doc: respond with a numeric literal and nothing else, no unit.

compound	composite z-score
O=C1C2C=CC(C(O)c3ccc([N+](=O)[O-])cc3)N(Nc3ccccc3F)C2C(=O)N1c1ccccc1 (stereo not given)	0.351

Ask: Give composite z-score for [N-]=[N+]=NCc1ccccc1[C@@H]1OC(c2ccc(OCCCO)cc2)=N[C@]1(Cc1ccccc1N=[N+]=[N-])C(=O)O
Result: 1.26

---

Below is a list of entries, each paired with its recorded composite z-score value.
Molecular target: Concanavalin-A (Canavalia ensiformis)
Experiment: compounds binding concanavalin A lectin – biochemical, small-molecule microarray, Alexa647 label, 635 nm, artefact control for SMM control protein annotation, primary screen (AID 1127);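 note: z combines 667 nm emission intensity with signal-to-noise across three replicate slides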
Settings: ConA-A647 binding fluorescence, higher = more signal
API doc: respond with a numeric literal and nothing else, no unit.

molecule	reading
C=C(COC)/C(=C/C[C@H](OC(C)=O)c1ccccc1OCCO)c1cc(C(=O)OC)ccc1OC	0.362
O=C1O[C@@H](c2ccccc2)[C@@H](c2ccccc2)N2[C@@H](c3ccc(OCCO)cc3)[C@]3(C(=O)Nc4ccc(C#CC5(O)CCCCCC5)cc43)[C@@H](C(=O)Nc3nc4ccccc4s3)[C@H]12	1.01
CC(C)=CCCC(C)=CC(O)C1C=CC2C(=O)NC(=O)C2N1Nc1ccc(Cl)cc1Cl (stereo not drawn)	0.623
CC1CC/C=C\[C@H]2OC34C=CCN(Cc5ccccc5)C(=O)[C@H]3N(CCCCCCO)C(=O)[C@@H]4C2C(=O)O1 (stereo partly drawn)	-1.45
CC(C)C(O)C1C=CC2C(=O)NC(=O)C2N1Nc1ccccn1 (stereo not drawn)	0.561

Ask: Enter recorded composite z-score with Concanavalin-A (Canavalia ensiformis) for COc1cc(OC)c(C(O)C2C=CC3C(=O)N(c4ccccc4)C(=O)C3N2Nc2ccc(C(C)C)cc2)cc1Br (stereo not drawn) here.
Result: 1.07

Ask: Enter recorded composite z-score with Concanavalin-A (Canavalia ensiformis) for COc1ccc(CCNC(=O)[C@@H]2c3ccccc3C(=O)N(Cc3ccccc3OC)[C@H]2c2ccc(CO)cc2)cc1 here.
Result: 0.792

Ask: Enter recorded composite z-score with Concanavalin-A (Canavalia ensiformis) for COc1ccc(C(O)C2C=CC3C(=O)NC(=O)C3N2Nc2ccc(Cl)cc2Cl)c2ccccc12 (stereo not drawn) here.
Result: 0.934
